Each item that follows carries a reported growth inhibition.
# Assay summary: OD615 S. cerevisiae growth inhibition, permissive medium, pilot counter-assay, permissive growth control for S. cerevisiae lifespan shortening project (AID 705)
# Test settings: OD615, 24 h, at 10 µM, hits give high values
Activity calls are given as the source filed them.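 Rule for the calls: active = growth inhibition above 25% in both replicates, a cutoff set 3 SD above the mean; inconclusive = above 25% in only one replicate; inactive = the rest.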

Entry "COCC(=O)Nc1ccc(C(N)=O)cc1" — recorded growth inhibition = -13.6% (inactive)

Entry "O=C(NCc1ccc2c(c1)OCO2)c1cc2c(s1)CSC2" — recorded growth inhibition = -4.81% (inactive)

Entry "CCc1nnc(NC(=O)c2ccc(S(=O)(=O)N(CCOC)CCOC)cc2)s1" — recorded growth inhibition = -9.86% (inactive)

* * *

Each item that follows carries a reported RAM network inhibition.
# Assay summary: RAM signaling pathway blockade in yeast – S. cerevisiae, Pdr1DBD-CYC8 efflux-inhibited sensitized strain, primary screen (AID 1298);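 note: 0% = DMSO untreated cells without growth and 100% = 10 µM 1-NA-PP1 full growth; higher means more yeast growth rescued from 5-FOA killing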
# Test settings: S. cerevisiae cbk1-as DSE1-URA3 strain, 5-FOA growth OD615, 2 d; at 50 µM; hits give high values
Provide the reading as a plain figure in %.

Compound	RAM network inhibition (%)
CC(C)(Oc1ccc(Cl)cc1)C(=O)N1CCN(c2ccccn2)CC1	-1.34
Cc1cc(SCC(=O)c2ccccc2)n2nc(C)nc2n1	2.67
Cc1ccccc1Cn1c(=O)[nH]c2ccccc21	4.55
CCCCCCc1c(O)nc(SCC(=O)O)[nH]c1=O	-0.58
Cc1cc2cc(CNC(=O)c3ccc(Br)o3)ccc2[nH]1	8.22

Entry "COc1ccc(N(CC(=O)N2CC=C(c3ccccc3)CC2)S(=O)(=O)c2c(C)noc2C)cc1" — recorded RAM network inhibition = 2.09

Entry "COc1ccc(NC(C)=O)cc1NC(=O)CSc1nnc(-c2ccncc2)n1C" — recorded RAM network inhibition = 0.2

Entry "Cc1nnc(SCCn2c(N3CCN(c4ccccc4)CC3)nc3c2c(=O)n(C)c(=O)n3C)s1" — recorded RAM network inhibition = 2.19

Entry O=C(NC1CCS(=O)(=O)C1)C1CCCCN1S(=O)(=O)c1ccc(Cl)cc1 (stereo not given) — recorded RAM network inhibition = 2.19

Entry "Nc1c(C(=O)c2ccc(Br)s2)oc2ccccc12" — recorded RAM network inhibition = 2.7

* * *

# Assay summary: inhibitors of the yeast RAM network, pilot screen, dse1pr::URA3 reporter, 5-FOA selection (AID 869);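 note: 0% = DMSO wells with no growth and 100% = 10 µM 1-NA-PP1 with full growth; RAM network block rescues cells from 5-FOA so hits raise OD615 growth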
# Test settings: S. cerevisiae dse1pr::URA3 5-FOA growth, OD615, 2 d; at 10 µM; hits give high values; strain carries analog-sensitive mutant Cbk1 kinase
Each item that follows carries a reported inhibition.
Provide the reading as a plain figure in %.

Field: example entries. Status: answers known.
Molecule	Units	inhibition
CC1CCCC(NC(=O)c2ccc3c(c2)N(Cc2ccccc2)C(=O)CS3=O)C1C (configuration not stated)	%	0.69
Cc1cc2n(c1)CCn1c(C)ccc1-2	%	1.99
Cn1c(NC(=O)c2ccc3c(c2)OCO3)cc(=O)n(C)c1=O	%	1.05
CCN(C(=O)c1sc(N)c(C#N)c1C)C1CCCCC1	%	1.5
Cc1csc2ncc(C(=O)Nc3ccc(C(F)(F)F)cc3)c(=O)n12	%	3.73

Entry O=C(O)C1CCCCN1S(=O)(=O)c1ccc(Cl)s1 (configuration not stated) — recorded inhibition = 0.505

Entry "Cc1cc(C)c(C#N)c(Oc2ccc(O)cc2)n1" — recorded inhibition = 2.56

Entry "C=C(C)CSc1nc2c(cc1C#N)CCC2" — recorded inhibition = 2.3

* * *

# Assay summary: OD615 S. cerevisiae growth inhibition, permissive medium, pilot counter-assay, permissive growth control for S. cerevisiae lifespan shortening project (AID 705)
# Test settings: OD615, 24 h, at 10 µM, hits give high values
Measure name: growth inhibition (%)
Provide the reading as a plain figure in %.

Field: example entries. Status: answers known.
Molecule	growth inhibition [%]
CCOc1ccc(NC(=O)N2CCC(n3c(=O)[nH]c4ccccc43)CC2)cc1	-13.3
CS(=O)(=O)c1ccc(C(=O)NC2CCOC2=O)cc1 (configuration not stated)	-2.63
CCCCOC(=O)Nc1sc2c(c1C(=O)OC)CCC2	-6.32
O=C(c1cnn2c(C(F)(F)F)cc(-c3ccco3)nc12)N1CCCCCC1	-14.5
CCSc1nnc2c(n1)OC(c1ccc(C(=O)O)cc1)N(C(C)=O)c1ccccc1-2 (configuration not stated)	-10.1

Entry "CSc1nc2sc3c(c2c(=O)n1C)CCCC3" — recorded growth inhibition = 7.93

Entry "CC(=O)Nc1ccc(C(=O)c2ccccc2)cc1" — recorded growth inhibition = 8.43

Entry COC(=O)CSC1=C(C#N)C(c2ccc(C(C)C)cc2)CC(=O)N1 (configuration not stated) — recorded growth inhibition = -0.135

Entry "Cc1occc1C(=O)Nc1nnc(-c2ccncc2)s1" — recorded growth inhibition = 4.81

Entry "CCOC(=O)c1nnn(-c2nonc2N)c1CN(C)Cc1ccccc1" — recorded growth inhibition = -7.27

Entry COC(=O)C1Sc2[nH]c(=O)sc2C(c2ccc(Cl)cc2)C1C(=O)OC (configuration not stated) — recorded growth inhibition = -14.8

Entry COc1ccc(Br)cc1C1CC(=O)N2CN(Cc3ccccc3)CSC2=C1C#N (configuration not stated) — recorded growth inhibition = 4.47

Entry "COc1ccc(Cl)cc1NC(=O)c1cnc2sccn2c1=O" — recorded growth inhibition = -6.94

Entry O=C(CN1CCN(Cc2ccccc2Cl)C1=O)NCC1CCCO1 (configuration not stated) — recorded growth inhibition = 4.72

Entry "COc1ccc(-c2nn(-c3ccccc3)cc2C(=O)O)cc1" — recorded growth inhibition = -8.52

Entry "COc1cccc(C(=O)NCCn2ccc3ccccc32)c1" — recorded growth inhibition = -0.9

Entry "CCOc1ccc(NC(=O)Nc2ccc3c(c2)N(C)C(=O)CS3)cc1" — recorded growth inhibition = -12

* * *

Each item that follows carries a reported growth inhibition.
# Assay summary: OD615 S. cerevisiae growth inhibition, permissive medium, pilot counter-assay, permissive growth control for S. cerevisiae lifespan shortening project (AID 705)
# Test settings: OD615, 24 h, at 10 µM, hits give high values
Provide the reading as a plain figure in %.

Field: example entries. Status: answers known.
Compound	Units	growth inhibition
Cc1cc(Nc2ccc(F)cc2C)n2nc(C)nc2n1	%	-2.58
Nc1nc(SCc2ccc(Cl)cc2)ns1	%	10.4
Cc1cnn(-c2ccc3nnc(-c4ccc(Br)cc4)n3n2)c1	%	-5.48

Entry "Cc1ccc(S(=O)(=O)Cc2ccc(C(=O)N3CCCC3)o2)cc1" — recorded growth inhibition = -4.83

Entry COC(=O)C1=C(C)NC(=O)NC1C1CC=CCC1 (configuration not stated) — recorded growth inhibition = -13.7

Entry "Cc1nnc(NC(=O)CSC2CCCCC2)s1" — recorded growth inhibition = 3.88

Entry "Cc1ccc(C(=O)NCCn2cc(SCC(=O)Nc3cc(C)on3)c3ccccc32)cc1" — recorded growth inhibition = -3.4

Entry "Fc1cccc(Cl)c1CSc1nnnn1-c1ccc2c(c1)OCO2" — recorded growth inhibition = 3.1

Entry "Cn1cccc1Cc1nnc(SCC(=O)NCCc2ccccc2)n1-c1ccc(F)cc1" — recorded growth inhibition = -6.41

Entry "COCC(=O)Nc1cc(C)c2c(=O)oc3ccccc3c2n1" — recorded growth inhibition = 1.37

Entry O=C(O)CC1C(=O)NCCN1Cc1ccc(F)c(F)c1 (configuration not stated) — recorded growth inhibition = -11.2

Entry CC(NC(=O)c1ccc2c(c1)OCO2)C1CCCO1 (configuration not stated) — recorded growth inhibition = -3.77

* * *

Each item that follows carries a reported viability increase.
# Assay summary: viability gain of MRP-1-high H69AR cells under doxorubicin, pilot screen, MRP-1 activator project, CellTiter-Glo, duplicate (AID 807);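 note: compound pretreatment 18-22 h then 72 h combined with doxorubicin; 0% = doxorubicin alone and 100% = vehicle without doxorubicin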
# Test settings: H69AR viability with doxorubicin, CellTiter-Glo luminescence; at 10 µM; hits give high values
Provide the reading as a plain figure in %.

Field: example entries. Status: answers known.
Molecule	Recorded number
Cc1sc2nc(SCC(=O)N(CCO)CCO)n(C3CCCCC3)c(=O)c2c1C	-2.54
COc1cc(NC(=O)COc2ccc(F)cc2)nc(OC)n1	-3.92
COc1ccccc1OCC(=O)NC1CCCCCC1	-0.27
COC(=O)c1ccccc1Nc1cc(C)nc2nc(C)nn12	-3.74
O=C(NCCCn1ccnc1)c1cc(C2CC2)on1	0.19
CCOC(=O)Nc1ccc2c(c1)N(C(=O)N(CC)CC)c1ccccc1CC2	-3.07
Cn1c(NC(=O)c2ccc(C(C)(C)C)cc2)cc(=O)n(C)c1=O	-2.04
O=C1Nc2ccccc2C(O)(C(=O)NCc2ccco2)N1c1ccccc1 (stereo not drawn)	-1.5

Entry "CCOc1ccc(CC(=O)N2CCN(c3ccc(N4CCOCC4)nn3)CC2)cc1OCC" — recorded viability increase = 0.46

Entry "Cc1cc(C)c(S(=O)(=O)Nc2ccc(OCC(=O)O)cc2)c(C)c1" — recorded viability increase = -0.81

Entry "Cc1c(C(=O)NCc2cccnc2)oc2ccccc12" — recorded viability increase = -3.9

Entry "CCOc1ccc(N(CC(=O)Nc2ccc3c(c2)OCCO3)S(=O)(=O)c2c(C)noc2C)cc1" — recorded viability increase = -3.41

Entry CCSCCOC(=O)C1=C(C)N(C)C(=O)NC1c1cc(OC)ccc1OC (stereo not drawn) — recorded viability increase = 1.05
